# System: Key Broadleaf Weed and Crop Species
# experimental details: Post-Emergent Test II: postemergent herbicidal activity, visual rating after 14 d (Table 7)
# Assay type: in vivo
# recorded conditions: post-emergence, 336 h, velvetleaf (Abutilon theophrasti), 70 g ai/ha, read-out: Visual Growth Reduction (%) 14 Days After Application ABUTH
endpoint label: pest or weed control at 70 g/ha

response.value for Nc1c(F)c(-c2ccc3c(c2F)OC(F)(F)O3)nc(C(=O)O)c1Cl (field: pest or weed control at 70 g/ha) = 85 to 94%

Recorded pest or weed control at 70 g/ha (compound Cc1c(-c2cc(N)c(Cl)c(C(=O)O)n2)ccc2c1OC(F)(F)O2 ): 0 to 29%

COc1cc(-c2nc(C(=O)O)c(Cl)c(N)c2F)cc2c1OCO2 yielded pest or weed control at 70 g/ha of 0 to 29%

Quick note, pest or weed control at 70 g/ha for Nc1c(Cl)c(C(=O)O)nc(-c2ccc3c(c2F)OC(F)(F)O3)c1Cl landed at 0 to 29%

Query CC1(C)Oc2ccc(-c3nc(C(=O)O)c(Cl)c(N)c3F)cc2O1 yields pest or weed control at 70 g/ha of 60 to 74%
